# test: chemical genetic growth profiling, strain panel (AID 1159580);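 note: tested at 20 µM; growth read once vehicle control cultures reached saturation at 30 °C; 1 = growth at the plate median or of vehicle wells; lower values mean less growth of the strain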
# protocol.conditions: S. cerevisiae deletion strains, growth OD, locus YKR001C, strain vps1, active compounds read low
In all, about 5,500 compounds went through this assay and about 2,000 (36%) were called active. Another 18% or so got no clear call; they are omitted. The list shows a part of the results.
So basically, if normalized growth comes in under 1 it's TRUE, and if it's 1 or more it's FALSE.

compound	group
C[n+]1c2cc(N)ccc2cc2ccc(N)cc21	TRUE
CC(=O)Oc1cc(OC(C)=O)c2c(c1)O[C@H](c1ccc(OC(C)=O)c(OC(C)=O)c1)[C@@H](OC(C)=O)C2	TRUE
CC[C@@]1(O)C[C@H](O[C@H]2C[C@H](N(C)C)[C@H](O)[C@H](C)O2)c2c(cc3c(c2O)C(=O)c2c(O)ccc(O)c2C3=O)[C@H]1C(=O)OC	TRUE
CC[C@@H](C(=O)C(C)[C@@H](O)[C@H](C)CCc1ccc(C)c(O)c1C(=O)O)C1OC(CC)(C2CC[C@](O)(CC)[C@H](C)O2)C[C@@H]1C (stereo partly specified)	FALSE
O=c1c(-c2ccc(O)cc2)coc2cc(O)ccc12	TRUE
CC1(C)CCC[C@@]2(C)C1[C@@H](O)C[C@]1(C)C2CC[C@@H]2[C@@]3(C)CC[C@H](C(C)(C)O)[C@@H]3CC[C@@]21C (stereo partly specified)	FALSE
CC[C@@]1(O)C[C@H](O)c2c(cc3c(c2O)C(=O)c2c(O)ccc(O)c2C3=O)[C@H]1C(=O)OC	TRUE

Query: Does the reported normalized growth of C=C1CCC2[C@](C)(CO)[C@H](O)CC[C@@]2(C)[C@@H]1C/C=C1/C(=O)OC[C@H]1O (stereo partly specified) stay below 1?
Reply: FALSE

---

# test: chemical genetic growth profiling, strain panel (AID 1159580);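 note: tested at 20 µM; growth read once vehicle control cultures reached saturation at 30 °C; 1 = growth at the plate median or of vehicle wells; lower values mean less growth of the strain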
# protocol.conditions: S. cerevisiae deletion strains, growth OD, locus YPR106W, strain ISR1
The campaign covered roughly 5,500 compounds. About 2,000 (36%) were called active. Not shown: some 18% with an inconclusive outcome. Rule as the data show it: active = normalized growth mostly below about 0.91 (no sharp cut-off); inconclusive = no clear call, values can overlap the other calls; inactive = mostly above about 0.92. Some of the results follow.
Would you mind answering with one of these outcomes? label 1 (active), label 0 (inactive)

Past entries and their recorded results:
molecule	group
Cc1nn(C)c(C(=O)Sc2ccc(OC(F)(F)F)cc2)c1[N+](=O)[O-]	label 0
COc1cccc(C2CCN(C(=O)c3cccc4ccccc34)CC2)c1	label 0
O=C(NCc1ccc(Cl)c(Cl)c1)c1cccnc1OCC(F)(F)F	label 0
O=[N+]([O-])c1ccc(ON=C2CCCCC2)c([N+](=O)[O-])c1	label 0
O=C(c1csc(-c2ccc(Cl)cc2)c1)N1CCCCC1	label 0
CCOC(=O)C1C(c2c(F)cccc2Cl)C(C(=O)OCC)C(O)(C(F)(F)F)NC1(O)C(F)(F)F (stereo not drawn)	label 0
Cc1ccc(Nc2ccnc3cc(Cl)ccc23)cc1F	label 0
COc1ccc(C(CC(=O)c2ccccc2)Sc2ccccc2N)cc1OC (stereo not drawn)	label 0
CCOC(=O)c1ccc2nc(N=CNO)sc2c1	label 0
CC(C)(C)c1ccc(N/N=C(\C#N)C(N)=O)cc1	label 1

Query: Identify the outcome logged in this assay for the molecule shown: "C/C(Cc1nnn(-c2cc(C)on2)n1)=N/OC(=O)Nc1ccc(Cl)cc1"
Reply: label 0

Query: Identify the outcome logged in this assay for the molecule shown: "CC(=O)c1ccc(Cl)c(NS(=O)(=O)c2cc(Cl)c(Cl)cc2Cl)c1"
Reply: label 0

Query: Identify the outcome logged in this assay for the molecule shown: "N#C/C(=N/Nc1ccc(F)cc1)C(=O)c1ccccc1"
Reply: label 1
